- experimental.protocol: Brain tissue distribution after intravenous administration
- Assay type: in vivo, SD rats
- condition.summary: male, SD, rat, brain/plasma, iv, 3.2 mg/kg, 3.2 mg/kg iv, 8 h, read-out: CBrain/CPlasma ratio
property: Kp at 8 h

CCCC1(CCC)NC(=O)c2cc(NC(=O)c3cc4cc(Cl)ccc4[nH]3)ccc2O1 : 0.09

---

- experimental.protocol: Plasma pharmacokinetics after intravenous administration (UHPLC–MS/MS)
- Assay type: in vivo, SD rats
- condition.summary: both sexes, SD; rat plasma, 0.8 mg/kg iv
property: AUC(0-t)

CCCC1(CCC)NC(=O)c2cc(NC(=O)c3cc4cc(Cl)ccc4[nH]3)ccc2O1 [compound 1] : 895 ng·h/mL
